Overview of recorded TGI for various compounds
System: OVCAR-8 ovarian
Experiment: NCI tumour cell line growth inhibition, 48 h

In the examples that follow, each entry is paired with its recorded TGI.
N=c1n(Cc2ccccc2)c(N)cc(=O)n1Cc1ccccc1 | 11.4 µM
CC1(C)N=C(N)N=C(N)N1c1cccc(CCCCOc2ccccc2)c1 | > 100 µM
COc1ccc(OC)c(/C=C2\COc3ccc(O)c(O)c3C2=O)c1 | 27 µM
COc1ccc2oc(=O)c(-c3nc4ccccc4o3)cc2c1 | > 100 µM

Okay, next one:
## Input Report TGI for `COc1ccc(-c2nc(N3CCOCC3)c3sc(CN(C)c4ncc(C(=O)NO)cn4)cc3n2)cn1`
## Output 0.222 µM

---

System: HS 578T breast
Test: NCI tumour cell line growth inhibition, 48 h
Documented TGI across a set of compounds
The reply should be a number in µM, with the unit left off.

C/C(=N\Nc1nc2ccccc2s1)c1cnccn1 | 20
C/C(=C\CCc1ccsc1)CC/C=C(\C)CCCN1CCC(CO)CC1 | 6.19

Let us examine a further case.
## Input Give measured TGI for `NCCCCN(CCCN)Cc1ccc2ccccc2c1` (HS 578T breast).
## Output 42.9

---

Test system: A498 renal
Test: NCI tumour cell line growth inhibition, 48 h
Some molecules, each annotated with its measured TGI.

Worked cases, answers included:
COc1ccc(-c2cc(-c3cc(C)ccc3O)[nH]c(=O)n2)cc1 | > 100 µM
Cc1ccc2c(c1)C(C1Cc3cccc(C)c3C1=O)OC2=O (stereo unspecified) | > 100 µM
CC(C)NC(=O)OCc1c(COC(=O)NC(C)C)c(-c2ccc(Cl)c(Cl)c2)n2c1CCC2 | 43.3 µM
S=C(c1ccc2c(c1)OCO2)N1CCN(c2cccc(Cl)c2)CC1 | 12.8 µM
CC1(C)N=C(N)N=C(N)N1c1cccc(CCCCOc2ccccc2)c1 | > 81.3 µM
COc1cc(Nc2nc3cc(C(F)(F)F)ccc3nc2-c2ccccc2)cc(OC)c1OC | > 100 µM

## Input State its TGI: CC(C)(C)C1(O)C=C(O)C(=O)N1NC(=O)c1ccccc1Nc1ccccc1 (stereo unspecified)
## Output > 100 µM

## Input Indicate the recorded TGI value for this molecule: `CN(C)C(=S)N/N=C(\C(=N/NC(=S)N(C)C)c1ccccn1)c1ccccn1`
## Output 30.2 µM

---

System: RPMI-8226 leukemia
Experiment: NCI tumour cell line growth inhibition, 48 h
TEST_READOUT: GI50

N#Cc1c(N)nc(NCc2ccccc2)c(C#N)c1-c1ccccc1Cl | 48.6 µM
Cc1ccc(NC2=C(Cl)C(=O)N(Cc3ccccc3)C2=O)cc1Cl | 0.454 µM
O=S(=O)(CCNCc1ccc(-c2ccc3ncnc(Nc4ccc(OCc5cccc(F)c5)c(Cl)c4)c3c2)o1)c1ccccc1 | > 25 µM
COc1ccc2cc(Cn3cc[n+](Cc4ccc5ccccc5c4)c3)ccc2c1 | 1.33 µM

Consider now this further compound.
## Input Let me know recorded GI50 for CCCC1=C(C(=O)OCC)C(c2ccccc2OC)C(C#N)=C(N)O1 (stereo not given) , thanks.
## Output 13.3 µM

---

Tested on: NCI-H226 lung
Experiment: NCI tumour cell line growth inhibition, 48 h
TEST_READOUT: TGI

Worked examples, 5 compounds total:
CC(C)[Si](OC1=C(C(=O)N(C)c2ccccc2Cl)CCCCC1)(C(C)C)C(C)C | > 100 µM
CNS(=O)(=O)c1ccc2[nH]c(O)c(C3=Nc4ccccc4C3=O)c2c1 | > 100 µM
NC(=O)CCC(CCC(N)=O)(CCC(N)=O)[N+](=O)[O-] | > 100 µM
N#Cc1c(-c2cccc(Cl)c2)cc(-c2ccc(Cl)cc2)nc1N | 34.8 µM
O=C1/C(=C/c2ccccc2F)CN(C(=O)C(Cl)Cl)C/C1=C\c1ccccc1F | 6.85 µM

## Input Look up and report TGI, with NCI-H226 lung as system, for `Cc1nc2c(O)cc3c4c(n(Cc5ccccc5)c3c2nc1C)C(=O)CCC4`
## Output > 100 µM

## Input Provide the reported TGI (system: NCI-H226 lung) for COc1cc(C2S/C(=C/c3ccccc3)C(=O)N2c2cc(Cl)c(Cl)cc2Cl)cc(OC)c1OC (centres undefined)
## Output > 100 µM

src = PubChem BioAssay (NCI)
